Known weight increase rate (%) of a selection of compounds
assay: Experimental Example 5: comparison of hygroscopicity by weight gain over time (60 to 66% RH); type: physicochemical; conditions: 24 EC, 155 minutes
measured-quantity: weight increase rate (%)

INSERT INTO measurements (compound, measured) VALUES
  ('CCOC(=O)[C@H](C)N.CS(=O)(=O)O [L-Ala-OEt MsOH salt, L-alanine ethyl ester methanesulfonate]', 0.48),
  ('CCOC(=O)[C@H](C)N.O=S(=O)(O)c1ccc(Cl)cc1 [L-Ala-OEt 4-CBS salt]', 4.82),
  ('CCOC(=O)[C@H](C)N.O=S(=O)(O)c1ccccc1 [L-Ala-OEt BsOH salt, L-alanine ethyl ester benzenesulfonate]', 2.22),
  ('COC(=O)[C@H](C)N.Cl [L-Ala-OMe HCl salt, alanine methyl ester hydrochloride, reference compound]', 16.23);

====

Test: Experimental Example 4: comparison of hygroscopicity by weight gain over time (40 to 46% RH)
Format: physicochemical
Details: 24° C., 90 minutes
Experimental: The L-Ala-OEt HCl salt, L-Ala-OEt MsOH salt, L-Ala-OEt BsOH salt, L-Ala-OEt 4-CBS salt, L-Ala-OEt 4-EBS salt, L-Ala-OEt 2,4-DMBS salt, and L-Ala-OEt 2,5-DMBS salt were measured in an amount of about 0.3 g each, left standing in a thermostatic chamber at a temperature of 24° C. and a humidity of 40 to 46% RH, and the hygroscopicity was compared based on the weight gain with the lapse of time. […]
Known weight increase rate (%) of a selection of compounds
measured-quantity: weight increase rate (%)

INSERT INTO measurements (compound, measured) VALUES
  ('CCOC(=O)[C@H](C)N.O=S(=O)(O)c1ccccc1 [L-Ala-OEt BsOH salt, L-alanine ethyl ester benzenesulfonate]', 1.08),
  ('CCOC(=O)[C@H](C)N.O=S(=O)(O)c1ccc(Cl)cc1 [L-Ala-OEt 4-CBS salt]', 2.14),
  ('CCOC(=O)[C@H](C)N.CS(=O)(=O)O [L-Ala-OEt MsOH salt, L-alanine ethyl ester methanesulfonate]', 0.35),
  ('CCOC(=O)[C@H](C)N.Cl [L-Ala-OEt HCl salt, alanine ethyl ester hydrochloride]', 9.53);

====

assay: Experimental Example 4: comparison of hygroscopicity by weight gain over time (40 to 46% RH); assay type: physicochemical; conditions: 24° C., 15 minutes
measured-quantity: weight increase rate (%)

INSERT INTO measurements (compound, measured_quantity, measured) VALUES
  ('CCOC(=O)[C@H](C)N.O=S(=O)(O)c1ccc(Cl)cc1 [L-Ala-OEt 4-CBS salt]', 'weight increase rate (%)', 1.55),
  ('CCOC(=O)[C@H](C)N.CS(=O)(=O)O [L-Ala-OEt MsOH salt, L-alanine ethyl ester methanesulfonate]', 'weight increase rate (%)', 0.03),
  ('CCOC(=O)[C@H](C)N.Cl [L-Ala-OEt HCl salt, alanine ethyl ester hydrochloride]', 'weight increase rate (%)', 2.63),
  ('CCOC(=O)[C@H](C)N.O=S(=O)(O)c1ccccc1 [L-Ala-OEt BsOH salt, L-alanine ethyl ester benzenesulfonate]', 'weight increase rate (%)', 0.66);

====

Known weight increase rate (%) of a selection of compounds
test: Experimental Example 5: comparison of hygroscopicity by weight gain over time (60 to 66% RH); assay type: physicochemical; conditions: 24 EC, 170 minutes
measured-quantity: weight increase rate (%)

INSERT INTO results (compound, measured_quantity, measured) VALUES
  ('CCOC(=O)[C@H](C)N.CS(=O)(=O)O [L-Ala-OEt MsOH salt, L-alanine ethyl ester methanesulfonate]', 'weight increase rate (%)', '0.51%'),
  ('CCOC(=O)[C@H](C)N.O=S(=O)(O)c1ccc(Cl)cc1 [L-Ala-OEt 4-CBS salt]', 'weight increase rate (%)', '4.94%'),
  ('CCOC(=O)[C@H](C)N.O=S(=O)(O)c1ccccc1 [L-Ala-OEt BsOH salt, L-alanine ethyl ester benzenesulfonate]', 'weight increase rate (%)', '2.28%'),
  ('COC(=O)[C@H](C)N.Cl [L-Ala-OMe HCl salt, alanine methyl ester hydrochloride, reference compound]', 'weight increase rate (%)', '16.88%');
